# system: T1, human Dll1 (human, UniProt O00548 18-723)
# T1 construct: whole, on cells
# T1 sequence (looked up): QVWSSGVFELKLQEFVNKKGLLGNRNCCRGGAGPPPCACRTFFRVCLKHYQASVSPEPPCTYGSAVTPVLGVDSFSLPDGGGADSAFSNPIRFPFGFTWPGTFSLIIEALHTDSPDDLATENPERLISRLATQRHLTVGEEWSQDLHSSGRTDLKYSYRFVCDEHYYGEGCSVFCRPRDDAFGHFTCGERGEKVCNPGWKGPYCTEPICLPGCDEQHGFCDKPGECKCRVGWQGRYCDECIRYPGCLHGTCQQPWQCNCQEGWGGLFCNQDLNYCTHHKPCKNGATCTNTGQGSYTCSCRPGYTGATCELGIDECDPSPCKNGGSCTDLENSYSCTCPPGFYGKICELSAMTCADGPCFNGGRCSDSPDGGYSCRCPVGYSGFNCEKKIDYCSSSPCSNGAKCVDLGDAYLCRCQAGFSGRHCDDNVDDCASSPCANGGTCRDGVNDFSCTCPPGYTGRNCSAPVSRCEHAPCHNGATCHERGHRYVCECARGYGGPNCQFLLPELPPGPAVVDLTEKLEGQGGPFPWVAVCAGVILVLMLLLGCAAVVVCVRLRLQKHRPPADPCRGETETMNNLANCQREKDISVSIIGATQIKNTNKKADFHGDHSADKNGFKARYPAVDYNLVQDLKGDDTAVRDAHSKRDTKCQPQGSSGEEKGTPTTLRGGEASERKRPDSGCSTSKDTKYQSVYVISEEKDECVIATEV
# test-description: FACS, 15 µg/ml, 293T cells with human Dll1 vs mock
Consider the following binders; for each one, report its Dll1/mock ratio.

1E4 (antibody, IgG2, V domains shown, Fully human; also used where no isotype is printed) VH: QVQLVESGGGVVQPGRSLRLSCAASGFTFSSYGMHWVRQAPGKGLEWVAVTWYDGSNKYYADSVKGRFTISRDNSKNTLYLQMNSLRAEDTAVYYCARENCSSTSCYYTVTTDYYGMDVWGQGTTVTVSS VL: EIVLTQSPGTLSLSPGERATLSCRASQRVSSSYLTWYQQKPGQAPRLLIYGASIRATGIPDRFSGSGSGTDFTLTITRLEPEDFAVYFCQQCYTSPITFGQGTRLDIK: 1.15

Dear colleague, could you send me Dll1/mock ratio for each of the items below? Thanks.
1. 1D4 (antibody, IgG4, V domains shown, Fully human XenoMouse antibody; also used where no isotype is printed) VH: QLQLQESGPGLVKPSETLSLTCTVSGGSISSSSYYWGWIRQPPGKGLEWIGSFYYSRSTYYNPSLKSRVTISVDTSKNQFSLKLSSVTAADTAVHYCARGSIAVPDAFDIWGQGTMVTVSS VL: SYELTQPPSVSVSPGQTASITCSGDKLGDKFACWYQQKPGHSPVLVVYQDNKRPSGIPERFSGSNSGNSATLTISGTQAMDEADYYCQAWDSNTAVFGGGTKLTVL
2. 2H10 (antibody, IgG4, V domains shown, Fully human; used for IgG4 rows and where no isotype is printed; also called 2H10 IgG4) VH: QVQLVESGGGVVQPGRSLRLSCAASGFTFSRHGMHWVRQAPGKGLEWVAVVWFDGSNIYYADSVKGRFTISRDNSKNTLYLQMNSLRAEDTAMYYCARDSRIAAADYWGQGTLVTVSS VL: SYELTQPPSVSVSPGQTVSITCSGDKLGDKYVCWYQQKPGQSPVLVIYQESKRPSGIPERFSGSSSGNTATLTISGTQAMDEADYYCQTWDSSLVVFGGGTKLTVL
3. 20G8 (antibody, IgG4, V domains shown, Fully human; also used where no isotype is printed) VH: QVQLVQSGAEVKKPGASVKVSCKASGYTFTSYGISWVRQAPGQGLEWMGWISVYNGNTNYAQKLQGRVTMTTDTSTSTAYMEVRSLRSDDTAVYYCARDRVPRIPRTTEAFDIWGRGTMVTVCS VL: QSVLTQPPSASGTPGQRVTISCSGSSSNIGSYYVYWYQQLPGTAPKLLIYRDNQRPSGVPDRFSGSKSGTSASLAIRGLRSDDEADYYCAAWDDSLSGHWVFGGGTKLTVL
4. 12A1 (antibody, IgG4, V domains shown, Fully human; also used where no isotype is printed) VH: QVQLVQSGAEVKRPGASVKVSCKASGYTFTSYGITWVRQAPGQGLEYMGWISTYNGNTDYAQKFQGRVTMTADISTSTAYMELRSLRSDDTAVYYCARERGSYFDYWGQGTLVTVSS VL: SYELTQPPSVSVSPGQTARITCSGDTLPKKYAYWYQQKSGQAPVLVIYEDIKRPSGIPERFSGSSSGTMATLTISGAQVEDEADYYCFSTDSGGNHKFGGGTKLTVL
5. 21H3 (antibody, IgG4, V domains shown, Fully human; used for IgG4 rows and where no isotype is printed; also called 21H3 IgG4) VH: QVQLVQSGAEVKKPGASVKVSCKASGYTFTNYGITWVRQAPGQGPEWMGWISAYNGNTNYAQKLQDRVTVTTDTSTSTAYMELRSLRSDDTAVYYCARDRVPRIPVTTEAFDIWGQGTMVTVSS VL: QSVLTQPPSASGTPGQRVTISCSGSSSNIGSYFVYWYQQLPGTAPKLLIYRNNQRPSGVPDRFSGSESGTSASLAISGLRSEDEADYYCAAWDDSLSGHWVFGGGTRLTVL

result:
[1.09, 1.1, 1.34, 1.12, 1.16]
